Each recorded value in this set is attributed to the supplement of paper PMC9170038.

Test system: MS2 coat protein
Test: apparent KD of MS2 coat protein; designed switch direction (-1 OFF switch, 1 ON switch): 1; higher = weaker reporter binding
Conditions: input ligand: microRNA oligo, concentration not stated
MEASURED_PARAMETER: apparent KD of MS2 coat protein
The answer should read as a number with its unit following.

query: Look up apparent KD of MS2 coat protein: AGGCUCAGAGCAGGAUAUAUGUGAUCACAUGAGGAUCACCCAUGUCUCGAGCUUCGGCUCGAGACAUAGAAGGGCUCUGAGCCA [SSNG2/3-B1] (Eterna round: R96, puzzle: Same State NG 2)
result: 39.3 nM

query: // repeat for GCGAGCGUACUUGCAACAUGAGGAUCACCCAUGUUAACUGGACAGGAUAUGGUACCGUUUCGGUACCAGAAGGGUUCACUCAUG [JL SSNG3 3.59] (Eterna round: R96, puzzle: Same State NG 3) and report
result: 64.2 nM

query: Would you mind doing GCCGCGUUUCGCGCCUACAUGAGGAUCACCCAUGUUUGUAGGCAGGAUAUCGCUCGCUUUGCGGGCGAGAAGGGCUGUUGUGGC [salish99_SSNG3_R04_019] (Eterna round: R96, puzzle: Same State NG 3) as well?
result: 41.8 nM

query: Now the sequence AUGAUAUACUCAGGAUAUAUGCGAGACGACGAGAUAGAAGGGAGAAGAUAAUGACGUACAUGAGGAUCACCCAUGUGAGGAUCA [Same State NG1 S4] (Eterna round: R96, puzzle: Same State NG 1)
result: 20.6 nM

query: Repeat for the following sequence: GCUCGACGUAUGGCCUACAUGAGGAUCACCCAUGUGAUUGGGCAGGAUAUCUAGAUGCAGGAUGUAGAGAAGGGCCCGUCGAGC [SameState NG3 #47] (Eterna round: R96, puzzle: Same State NG 3)
result: 92 nM

query: Check GCUCGUGGUAUUGUCUACAUGAGGAUCACCCAUGUAGGUGCGGAGGAUAUUUACGUGUCUCAUGUAGAGAAGGCCGUCACGAGC [SameState NG3 #97] (Eterna round: R96, puzzle: Same State NG 3) too.
result: 190 nM

---

Test system: MS2 coat protein
Assay: apparent KD of MS2 coat protein; designed switch direction (-1 OFF switch, 1 ON switch): 1; higher = weaker reporter binding
Conditions: input ligand: none
MEASURED_PARAMETER: apparent KD of MS2 coat protein

Example cases with answers are listed next.
MONOMER_SEQUENCE	apparent KD of MS2 coat protein
UUUAGCGUUACAGGAUAUGGUGAGGAUCACCCACUAGAAGGGUAAACAUGUGCGUCGGACAUGAGGAUCACCCAUGUAGGGCGU (Eterna round: R96, puzzle: Same State NG 1)	35.2 nM
AAUCGUUUAAUAGGAUAUCGCUAUACAUGAGGAUCACCCAUGUUUACCACGCUGGUUUUUCGUACCGAGAAGGAUUCUGAUGAU [JL JR sub007 mod 8] (Eterna round: R96, puzzle: Same State NG 2)	39.9 nM
UUGAAGAAUUAAGGAUAUCGAGUCAAGAUGUUAAACAUGAGGAUCACCCAUGUGGGUUGCGGUAUCGAGAAGGUAAAUAAGAAG [Mat - Same State NG 2 - JL mod - D54] (Eterna round: R96, puzzle: Same State NG 2)	44.8 nM
GGCAAUAUCACAGGAUAUUGGAAAGGAAGUGUACAAGAAGGGUGAUAGGGCCUCAGCAACAUGAGGAUCACCCAUGUACUGAGC [PowerStrip SSNG 1.10] (Eterna round: R96, puzzle: Same State NG 1)	40.8 nM

Continue with the sequence presented below.
query: Give its apparent KD of MS2 coat protein value. Item: AAUUGUUUCUGAGGAUAUCAGUAGUAUGCCAAUUGAGAAGGCAGUACAUGAGGAUCACCCAUGUUGUGGUUUGAUAGAAUGAUA [JR_SSNG1_Sub002] (Eterna round: R96, puzzle: Same State NG 1)
result: 181 nM
